Data provenance is the supplement of paper PMC10567573.

B1: ZNF8 (parent)
chain: SLGRHKRTHTGEKPYTCSVCGKSF

variants of: B1; assay: protein stability index of a GFP-peptide fusion (GPS, HEK-293T) (PSI 1-6); higher = more stable; settings: c terminus: a fixed tail appended;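 further: lentivirally expressed fusions sorted by FACS into six bins by GFP to DsRed ratio, PSI derived from sequencing read proportions per bin multiplied by bin number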
Below: a set of entries, each annotated with reported protein stability index.

sequence-code | protein stability index
SLGRKKRTHTGEKPYTCSVCGKSF | 3.01
SLGRHKRTHTGEKPYTCSVCGKGF | 2.94
SLGRHKRTHTYEKPYTCSVCGKSF | 2.94
SLGRHKRTHTGEKPYTCAVCGKSF | 2.94
SLGRHKRAHTGEKPYTCSVCGKSF | 3.09
SLGRHKRTHTGEKPYTCSVCSKSF | 2.94
SLGRHKRTETGEKPYTCSVCGKSF | 3.06
SLGRHKRTHTGEWPYTCSVCGKSF | 3.06
SLGRHKRTHTGEKPYTCSHCGKSF | 3.06
SLGRHKRTHTGEKPYTCSVCGKSL | 3.02
SLGRHKRTHTGEKPYTCSVCGKSW | 2.93
SLGRHKRTHTGEHPYTCSVCGKSF | 2.96
SLGRHKRTHTGEKPYTMSVCGKSF | 2.96
SLGRHKRTHTGEKPYECSVCGKSF | 2.98
